Tested on: HeLa-GFP cells
Assay: HeLa-GFP fluorometric cytotoxicity assay
Details: 2 μg/ml, 18 h incubation, relative to untreated (DMSO) cells
measurement-type: Percent-GFP-fluorescence after incubation with test compounds, HeLa-GFP (2 μg/ml)

Before answering, review these 2 worked examples.
CCCC1=CC(=O)c2c(OC)cccc2C1=O
78.0%
CCCCCCC1=CC(=O)c2c(OC)cccc2C1=O
80.0%

Input: Fill blank: measured Percent-GFP-fluorescence after incubation with test compounds, HeLa-GFP (2 μg/ml) of the compound CCCC1=C(CCC)C(=O)c2c(OC)cccc2C1=O is ____.
Output: 78.0%

Input: Fill blank: measured Percent-GFP-fluorescence after incubation with test compounds, HeLa-GFP (2 μg/ml) of the compound CCCCCCCC1=CC(=O)c2ccccc2C1=O is ____.
Output: 81.0%

FYI, the data here is from patent US20080020421A1.
